experimentalEndpoint: melting point (°C)

Cc1c(N2C(=O)OC3(CCCC3O)C2=O)ccc(C#N)c1Cl (centres unmarked)
150
Cc1c(N2C(=O)N(C)C3(CCC(F)(F)C3)C2=O)ccc(C#N)c1Cl (centres unmarked) [Example 6.3]
184
Cc1c(N2C(=O)N(Cc3ccccn3)C3(CCCC3)C2=O)ccc(C#N)c1Cl [Example 8.4]
179
Cc1c(N2C(=O)N(C)C3(CCCC3)C2=O)ccc(C#N)c1Cl [Example 3.0]
154
Cc1c(N2C(=O)N(Cc3ccncc3)C3(CCCC3)C2=O)ccc(C#N)c1Cl [Example 8.5]
76

* * *

- experimentalTarget: androgen receptor (AR) (Homo sapiens)
- Construct: transfecting C2C12 cells with a plasmid containing full-length AR; expressed in transfected cells; host or cells: mouse myoblastic C2C12 cells (ATCC CRL-1772), transiently transfected with AR-FL in pcDNA 3.1(+)
- Sequence (P10275 whole entry, species assumed): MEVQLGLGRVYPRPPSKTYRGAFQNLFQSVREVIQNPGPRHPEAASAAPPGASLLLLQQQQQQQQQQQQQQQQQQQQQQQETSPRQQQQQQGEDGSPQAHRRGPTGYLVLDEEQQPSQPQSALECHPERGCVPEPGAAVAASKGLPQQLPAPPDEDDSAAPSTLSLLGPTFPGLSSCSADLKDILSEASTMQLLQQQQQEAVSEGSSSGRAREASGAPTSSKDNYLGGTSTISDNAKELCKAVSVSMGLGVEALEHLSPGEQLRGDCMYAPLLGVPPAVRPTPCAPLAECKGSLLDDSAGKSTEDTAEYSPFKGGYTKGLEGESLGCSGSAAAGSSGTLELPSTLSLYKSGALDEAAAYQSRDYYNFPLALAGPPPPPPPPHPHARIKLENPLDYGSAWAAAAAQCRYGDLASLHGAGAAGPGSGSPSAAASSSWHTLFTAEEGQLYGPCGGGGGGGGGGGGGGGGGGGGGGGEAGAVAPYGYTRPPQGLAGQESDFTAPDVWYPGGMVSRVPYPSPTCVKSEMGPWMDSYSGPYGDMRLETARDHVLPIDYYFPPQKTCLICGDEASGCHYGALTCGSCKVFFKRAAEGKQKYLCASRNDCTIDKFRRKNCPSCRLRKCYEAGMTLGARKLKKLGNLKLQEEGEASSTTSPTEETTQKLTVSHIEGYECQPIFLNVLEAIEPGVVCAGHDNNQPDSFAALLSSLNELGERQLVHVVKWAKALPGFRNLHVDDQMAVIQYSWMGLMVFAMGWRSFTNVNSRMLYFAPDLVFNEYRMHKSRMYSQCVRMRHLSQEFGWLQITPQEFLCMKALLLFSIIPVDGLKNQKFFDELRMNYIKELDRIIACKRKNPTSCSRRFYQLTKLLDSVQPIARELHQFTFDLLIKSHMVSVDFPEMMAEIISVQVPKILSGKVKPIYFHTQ
- experimentDescription: Test 1: androgen receptor transcriptional activation (2XIDR17-luciferase) assay in transfected C2C12 cells
- Type: cell-based
- experimentalConditions: C2C12, C2C12 cells; percentage activity relative to 1 μM DHT; read-out: Biological activity (C2C12 cell) Emax % (converted)
experimentalEndpoint: Emax

CCN1C(=O)N(c2ccc(C#N)c(Cl)c2C)C(=O)C12CCCC2O (stereo not drawn)
79%
Cc1c(N2C(=O)N(C)C3(CCCC3O)C2=O)ccc(C#N)c1Cl (stereo not drawn)
80%
Cc1c(N2C(=O)N(C)C3(CCCC3O)C2O)ccc(C#N)c1Cl (mixture of isomers)
79%
